B1: glmS ribozyme (parent)
chain: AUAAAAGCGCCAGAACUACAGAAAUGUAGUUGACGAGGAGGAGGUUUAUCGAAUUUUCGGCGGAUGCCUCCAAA

Variants of: B1
ASSAY_SUMMARY: self-cleavage kobs at 640 uM GlcN6P; higher = faster cleavage; RNA array
CONDITIONS_USED: with glucosamine-6-phosphate
Variants at the floor of the assay were thinned out.
RECORDED_ENDPOINT: self-cleavage kobs at 640 uM GlcN6P (s⁻¹)
Reply numerically in s⁻¹, unit not repeated.

Examples with their reported self-cleavage kobs at 640 uM GlcN6P follow.
INSERT INTO results (variant_name, reported) VALUES
  ('C16U A64G U65A C70U', 0.00104),
  ('A39U C68G', '5.37e-05'),
  ('G29C A39C', '7.25e-05'),
  ('U45G A53G', 0.00204);

What does the record list as self-cleavage kobs at 640 uM GlcN6P for U65C C71A ?
6.26e-05

And for A12C U31C A39G ?
0.000185

Similarly, G13A U56A ?
0.000106

Quick one: U65G C70A
7.93e-05
